- Target entity: T1, talin-1 head domain (THD1) (UniProt P26039 1-405)
- T1 chain: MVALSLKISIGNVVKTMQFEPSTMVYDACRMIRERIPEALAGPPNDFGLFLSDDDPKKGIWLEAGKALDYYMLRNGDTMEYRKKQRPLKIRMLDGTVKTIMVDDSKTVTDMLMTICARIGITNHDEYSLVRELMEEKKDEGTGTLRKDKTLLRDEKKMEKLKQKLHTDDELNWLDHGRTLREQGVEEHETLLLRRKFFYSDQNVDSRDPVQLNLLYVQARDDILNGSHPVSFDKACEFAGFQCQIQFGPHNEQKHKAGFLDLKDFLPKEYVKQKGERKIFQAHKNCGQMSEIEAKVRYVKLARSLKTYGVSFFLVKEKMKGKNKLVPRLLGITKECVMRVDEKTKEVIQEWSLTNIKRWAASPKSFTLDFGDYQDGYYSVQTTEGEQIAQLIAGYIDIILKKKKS
- Assay procedure: MST
No end group written: not given here.
I'd be grateful if you could share measured Kd for these entries.
Reply with just the number (in µM).

For the binder shown here, {ATTO 488}-KLLITIHDRKEFAKFEEERARAKWDTANNPLAKEATSTFTNITYRGT [ATTO 488-labelled β3-CT^Y772A] , give the reported Kd.
511

{ATTO 488}-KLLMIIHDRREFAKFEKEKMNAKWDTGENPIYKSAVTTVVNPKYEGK [ATTO 488-labelled β1-CT (488–β1-CT)] , same question.
140
